# Test system: SK-MEL-2
# procedure text: NCI tumour cell line growth inhibition, 48 h
The source made the active and inactive calls. Rule as the data show it: active = GI50 up to about 1.1 µM and inactive = higher.
reported property: GI50

structure_smiles_string=S=C1N=C(Cl)/C(=C\c2ccccc2)N1 target_or_test_system=SK-MEL-2 reported_property=GI50 readout_value="> 100 µM (inactive)"
structure_smiles_string=CCCCn1/c(=N/C(=S)N(C)C)ss/c1=N\C(=S)N(C)C target_or_test_system=SK-MEL-2 reported_property=GI50 readout_value="> 100 µM (inactive)"
structure_smiles_string=CN(Cc1cc(Br)cc(Br)c1O)Cc1c(O)ccc2ccccc12 target_or_test_system=SK-MEL-2 reported_property=GI50 readout_value="17.8 µM (inactive)"
structure_smiles_string=c1cc(N(CCn2cccn2)CCn2cccn2)cc(N(CCn2cccn2)CCn2cccn2)c1 target_or_test_system=SK-MEL-2 reported_property=GI50 readout_value="> 100 µM (inactive)"
structure_smiles_string=COC(=O)c1ccc(CCc2cc(O)c(Br)cc2O)cc1 target_or_test_system=SK-MEL-2 reported_property=GI50 readout_value="18.9 µM (inactive)"
structure_smiles_string=O=C(O)Cc1cc(O)c(CC(=O)O)cc1O target_or_test_system=SK-MEL-2 reported_property=GI50 readout_value="> 100 µM (inactive)"
structure_smiles_string=CCCC[C@@H]1CCN2C[C@@H](O)[C@@H](O)[C@@H]2[C@H]1O target_or_test_system=SK-MEL-2 reported_property=GI50 readout_value="> 100 µM (inactive)"
structure_smiles_string=Cc1ccc(Nc2nc(C)c(C(=O)CC(=O)C(=O)Nc3c(C)cccc3C(C)(C)C)s2)cc1 target_or_test_system=SK-MEL-2 reported_property=GI50 readout_value="> 100 µM (inactive)"
